Biological target: human TLR8 (Homo sapiens)
Sequence (Q9NR97 27-1041): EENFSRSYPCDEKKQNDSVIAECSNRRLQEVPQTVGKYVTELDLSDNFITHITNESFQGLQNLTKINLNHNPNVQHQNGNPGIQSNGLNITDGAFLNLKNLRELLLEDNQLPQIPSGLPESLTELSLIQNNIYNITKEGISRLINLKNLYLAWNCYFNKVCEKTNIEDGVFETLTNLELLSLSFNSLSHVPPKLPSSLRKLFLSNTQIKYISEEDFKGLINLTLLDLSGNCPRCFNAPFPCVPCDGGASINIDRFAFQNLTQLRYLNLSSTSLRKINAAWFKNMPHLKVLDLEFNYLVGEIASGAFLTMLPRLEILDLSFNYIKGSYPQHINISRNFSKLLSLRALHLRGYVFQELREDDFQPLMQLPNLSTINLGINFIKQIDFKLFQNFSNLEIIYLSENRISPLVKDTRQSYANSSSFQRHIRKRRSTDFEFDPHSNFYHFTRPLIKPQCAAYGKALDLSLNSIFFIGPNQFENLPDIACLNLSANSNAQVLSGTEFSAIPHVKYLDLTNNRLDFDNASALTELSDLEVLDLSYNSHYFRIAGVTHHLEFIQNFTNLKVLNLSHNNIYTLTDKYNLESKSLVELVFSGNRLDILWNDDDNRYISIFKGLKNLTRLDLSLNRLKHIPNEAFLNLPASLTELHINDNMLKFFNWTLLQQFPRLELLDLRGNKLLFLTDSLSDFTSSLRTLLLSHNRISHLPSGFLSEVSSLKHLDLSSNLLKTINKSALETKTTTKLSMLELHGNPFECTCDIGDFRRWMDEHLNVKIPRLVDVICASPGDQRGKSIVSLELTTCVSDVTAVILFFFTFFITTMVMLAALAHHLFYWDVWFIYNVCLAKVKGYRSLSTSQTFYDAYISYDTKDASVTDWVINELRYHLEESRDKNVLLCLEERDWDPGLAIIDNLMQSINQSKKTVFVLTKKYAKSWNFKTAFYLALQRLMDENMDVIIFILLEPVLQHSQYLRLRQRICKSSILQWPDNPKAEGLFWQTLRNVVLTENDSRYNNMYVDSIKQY
Assay: HEK293 NFKB reporter assay, human TLR8
Settings: HEK293 NFKB reporter cells expressing human TLR8; read-out: HEK293 hTLR8 EC50
observable: EC50

Here's what some known entries look like.
In [3]: df
Out[3]:
                                   compound  observable  endpointvalue
0  CCCN(CCCNC(=O)OC1CCC1)C(=O)C1=Cc2sc(CN3Cc4ccc(NC(=O)CCN)cc4C3)cc2N=C(N)C1 [TAZ-189]        EC50        3390 nM
1  CCCN(Cc1ccc(CN(C)C)cc1)C(=O)C1=Cc2sccc2N=C(N)C1 [TAZ-87]        EC50         214 nM
2  CCCN(CCC)C(=O)C1=Cc2sc(S(=O)(=O)NCCCN)cc2N=C(N)C1 [TAZ-56]        EC50      > 9000 nM

Turning now to a further record.
Q: Query (compound): CCCN(OCCNC(=O)CC(C)(C)C)C(=O)C1=Cc2sc(CCCCCN)cc2N=C(N)C1 [TAZ-149] ; field requested: EC50
Result: 2240 nM
